// data source = paper PMC10146949

Target: S2R (Rattus norvegicus)
Construct: A few rat livers were homogenized in cold 0.32 M sucrose with a Potter-Elvehjem glass homogenizer; tissue ENVIGO RMS S.R.L., Udine, Italy (animals); host or cells: Sprague Dawley rat liver membranes
Sequence (Q5U3Y7 1-176): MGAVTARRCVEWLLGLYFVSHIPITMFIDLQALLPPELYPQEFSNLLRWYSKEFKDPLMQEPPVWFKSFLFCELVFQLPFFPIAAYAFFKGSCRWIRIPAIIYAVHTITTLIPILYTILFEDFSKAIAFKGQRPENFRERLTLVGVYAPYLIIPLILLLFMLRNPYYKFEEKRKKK
Assay: S2R radioligand binding assay, [3H]DTG, rat liver membranes
Give Ki for every item shown.
Give your result as the value with the unit written after it.

Task item: Reported Ki for CC(C(O)c1ccccc1)N(C)CCCCc1ccccc1 (centres unmarked) [5m] : what is it?
Reply: 30 nM

Task item: Would you kindly repeat that for CC(C(=O)c1ccc(O)cc1)N(C)CCCCc1ccccc1 (centres unmarked) [5j] ?
Reply: 45 nM

Task item: Would you kindly repeat that for COc1ccc(C(=O)C(C)N2CCCN(Cc3ccccc3)CC2)cc1 (centres unmarked) [5e] ?
Reply: 97 nM

Task item: Would you kindly repeat that for CC(C(=O)c1ccc(O)cc1)N1CCCN(Cc2ccccc2)CC1 (centres unmarked) [5i] ?
Reply: 22 nM

Task item: Would you kindly repeat that for COc1ccc(C(=O)C(C)N2CCN(Cc3ccccc3)CC2)cc1 (centres unmarked) [5h] ?
Reply: 84 nM

====

Give pKi for every item shown.
Biological target: S2R (Rattus norvegicus, UniProt Q5U3Y7)
Construct: A few rat livers were homogenized in cold 0.32 M sucrose with a Potter-Elvehjem glass homogenizer; tissue ENVIGO RMS S.R.L., Udine, Italy (animals); host or cells: Sprague Dawley rat liver membranes
Sequence (Q5U3Y7 1-176): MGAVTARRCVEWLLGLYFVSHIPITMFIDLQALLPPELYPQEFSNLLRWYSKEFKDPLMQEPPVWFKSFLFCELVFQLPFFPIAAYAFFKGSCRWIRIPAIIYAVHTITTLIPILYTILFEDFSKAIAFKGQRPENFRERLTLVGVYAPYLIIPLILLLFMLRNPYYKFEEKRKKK
Experiment: S2R radioligand binding assay, [3H]DTG, rat liver membranes
Conditions: read-out: Ki S2R
Just so you know, pKi here is -log10 of the concentration in molar units; reply with that number alone.

Task item: Reported pKi for COc1ccc(C(=O)C(C)N(C)CCCCc2ccccc2)cc1 (stereo not shown) [5g] : what is it?
Reply: 6.41

Task item: Would you kindly repeat that for CC(C(=O)c1ccccc1)N1CCN(Cc2ccccc2)CC1 (stereo not shown) [5d] ?
Reply: 6.52

Task item: Would you kindly repeat that for CC(C(=O)c1ccccc1)N(C)CCCCc1ccccc1 (stereo not shown) [5c] ?
Reply: 6.13

Task item: Would you kindly repeat that for COc1ccc(C(=O)C(C)N2CCN(c3ccccc3)CC2)cc1 (stereo not shown) [5f] ?
Reply: 6.00

Task item: Would you kindly repeat that for CC(C(=O)c1ccccc1)N1CCN(c2ccccc2)CC1 (stereo not shown) [5b] ?
Reply: 6.80

Task item: Would you kindly repeat that for COc1ccc(C(O)C(C)N(C)CCCCc2ccccc2)cc1 (stereo not shown) [5n] ?
Reply: 6.32

Task item: Would you kindly repeat that for CC(C(=O)c1ccccc1)N1CCCN(Cc2ccccc2)CC1 (stereo not shown) [5a] ?
Reply: 6.97

Task item: Would you kindly repeat that for CC(C(=O)c1ccc(O)cc1)N1CCN(c2ccccc2)CC1 (stereo not shown) [5l] ?
Reply: 6.83

Task item: Would you kindly repeat that for COc1ccc(C(O)C(C)N2CCCN(Cc3ccccc3)CC2)cc1 (stereo not shown) [5o] ?
Reply: 6.89

Task item: Would you kindly repeat that for CC(C(=O)c1ccc(O)cc1)N1CCN(Cc2ccccc2)CC1 (stereo not shown) [5k] ?
Reply: 6.89
